experiment: Hepatocytes stability assay (human hepatocytes); assay type: in vitro ADME; conditions: both sexes, human, cryopreserved hepatocytes, cryopreserved human hepatocytes (pool of 50 mixed gender); 1 μM test compound; 1×10^6 cell/mL; 37 degrees C; read-out: CLint (μL/min/million cells)
outcome_measure: hepatocyte CLint at 1 μM (µL/min/1e6 cells)

- compound: "C[C@@H]1C[C@H](NS(C)(=O)=O)[C@@H]2CO[C@H]3CC[C@H](CC3)c3ccccc3OCC(=O)N12 [Compound 103]"
  value_units: "µL/min/1e6 cells"
  reported_value: 41
- compound: "Cc1cccc2c1C1CCC(CC1)OC[C@H]1[C@@H](NS(=O)(=O)C3CC3)CCCN1C(=O)CO2 (stereo in doubt) [Compound 4]"
  value_units: "µL/min/1e6 cells"
  reported_value: 29
- compound: "Cc1ccc2c(c1)C1CCC(CC1)OC[C@H]1[C@@H](NS(=O)(=O)C3CC3)CCCN1C(=O)CO2 (stereo in doubt) [Compound 13]"
  value_units: "µL/min/1e6 cells"
  reported_value: 6.3
- compound: "O=C1COc2ccccc2[C@H]2CC[C@H](CC2)OCC2[C@@H](NS(=O)(=O)C3CCC3)CCCN12 (stereo in doubt) [Compound 42]"
  value_units: "µL/min/1e6 cells"
  reported_value: 36

[A] Cc1cccc2c1OCCN1CCC[C@H](NS(C)(=O)=O)C1CO[C@H]1CC[C@@H]2CC1 (stereo in doubt) [Compound 49]
[B] Cc1ncnc2c1[C@H]1CC[C@H](CC1)OCC1[C@@H](NS(=O)(=O)C3CC3)CCN1C(=O)CO2 (stereo in doubt) [Compound 83]
// returns A or B , whichever has the lower hepatocyte CLint at 1 μM Pick one and reply with its label. B

[1] CS(=O)(=O)N[C@H]1CCCN2C(=O)COc3cc(C#N)ccc3[C@H]3CC[C@H](CC3)OCC12 (stereo in doubt) [Compound 47]
[2] O=C1COc2ccccc2[C@H]2CC[C@H](CC2)OCC2[C@@H](NS(=O)(=O)C3CCCC3)CCCN12 (stereo in doubt) [Compound 33]
// returns 1 or 2 , whichever has the lower hepatocyte CLint at 1 μM Pick one and reply with its label. 1

[A] CC[C@@H]1Oc2ccccc2[C@H]2CC[C@H](CC2)OCC2[C@@H](NS(C)(=O)=O)CCCN2C1=O (stereo in doubt) [Compound 84]
[B] Cc1c(Cl)ccc2c1[C@H]1CC[C@H](CC1)OCC1[C@@H](NS(=O)(=O)C3CC3)CCCN1C(=O)CO2 (stereo in doubt) [Compound 75]
[C] O=C1COc2ccccc2[C@H]2CC[C@H](CC2)OCC2[C@@H](NS(=O)(=O)CC3CCC3)CCCN12 (stereo in doubt) [Compound 43]
[D] O=C1COc2ccccc2C2CCC(CC2)OC[C@H]2[C@@H](NS(=O)(=O)C(F)F)CCCN12 (stereo in doubt) [Compound 7]
Please list the entries, largest hepatocyte CLint at 1 μM first. Output spec: a listing of the labels in the requested order. C, A, D, B

---

system: MDR1; test: MDCK-MDR1 permeability assay; assay type: in vitro ADME; details: dog, MDCK-MDR1, MDCK-MDR1 cells; test compound 3 μM; 2 hours at 37 degrees C; apical to basolateral
outcome_measure: Papp A→B at 2 h, 3 μM

- compound: "CS(=O)(=O)N[C@H]1CCCN2C(=O)COc3ccccc3[C@H]3CC[C@@H](OCC12)[C@H](O)C3 (stereo in doubt) [Compound 45]"
  Papp A→B at 2 h, 3 μM: "< 0.14 ×10⁻⁶ cm/s"
- compound: "CS(=O)(=O)N[C@H]1CCCN2C(=O)[C@H](CO)Oc3ccccc3[C@H]3CC[C@H](CC3)OCC12 (stereo in doubt) [Compound 61]"
  Papp A→B at 2 h, 3 μM: "< 0.034 ×10⁻⁶ cm/s"

Attention now turns to another entry.
Quick one: Papp A→B at 2 h, 3 μM for O=C1COc2nnccc2[C@H]2CC[C@H](CC2)OCC2[C@@H](NS(=O)(=O)C3CC3)CCCN12 (stereo in doubt) [Compound 67] ? < 0.036 ×10⁻⁶ cm/s

---

Below, each of the compounds is paired with its reported Papp A→B at 2 h, 3 μM value.
test system: MDR1; experiment: MDCK-MDR1 permeability assay; assay type: in vitro ADME; details: dog, MDCK-MDR1, MDCK-MDR1 cells; test compound 3 μM; 2 hours at 37 degrees C; apical to basolateral

As a guide, the following entries are already answered.
- compound: "Cc1ncnc2c1[C@H]1CC[C@H](CC1)OCC1[C@@H](NS(=O)(=O)C(C)C)CCCN1C(=O)CO2 (stereo in doubt) [Compound 69]"
  reported_value: "< 0.041 ×10⁻⁶ cm/s"
- compound: "O=C1COc2ccccc2C2CCC(CC2)OC[C@H]2[C@@H](NS(=O)(=O)CCO)CCCN12 (stereo in doubt) [Compound 19]"
  reported_value: "< 0.092 ×10⁻⁶ cm/s"

Attention now turns to another entry.
Item CN(C)CCS(=O)(=O)N[C@H]1CCCN2C(=O)COc3ccccc3[C@H]3CC[C@H](CC3)OCC12 (stereo in doubt) [Compound 39] with MDR1 - Papp A→B at 2 h, 3 μM? < 0.086 ×10⁻⁶ cm/s

---

experiment: Hepatocytes stability assay (human hepatocytes); assay type: in vitro ADME; conditions: both sexes, human, cryopreserved hepatocytes, cryopreserved human hepatocytes (pool of 50 mixed gender); 1 μM test compound; 1×10^6 cell/mL; 37 degrees C; read-out: CLint (μL/min/million cells)
outcome_measure: hepatocyte CLint at 1 μM (µL/min/1e6 cells)

- compound: "CC(C)S(=O)(=O)N[C@H]1CCCN2CCOc3ccccc3[C@H]3CC[C@H](CC3)OCC12 (stereo in doubt)"
  reported_value: 59
- compound: "O=C1COc2ccccc2C2CCC(CC2)OC[C@H]2[C@@H](NS(=O)(=O)C3CC3)CCCN12 (stereo in doubt)"
  reported_value: 31

[A] Cc1ccnc2c1C1CCC(CC1)OC[C@H]1[C@@H](NS(C)(=O)=O)CCCN1C(=O)CO2 (stereo in doubt)
[B] O=S(=O)(N[C@H]1CCCN2CCOc3ccccc3[C@H]3CC[C@H](CC3)OCC12)C1CC1 (stereo in doubt)
[C] Cc1ncnc2c1[C@H]1CC[C@H](CC1)OCC1[C@@H](NS(=O)(=O)C3CC3)CCCN1C(=O)CO2 (stereo in doubt)
[D] O=C1COc2ccccc2[C@H]2CC[C@H](CC2)OCC2[C@@H](NS(=O)(=O)CF)CCCN12 (stereo in doubt)
Please list the entries, largest hepatocyte CLint at 1 μM first. Output spec: a listing of the labels in the requested order. B, D, A, C
(B: 42 µL/min/1e6 cells, D: 18 µL/min/1e6 cells, A: 9.7 µL/min/1e6 cells, C: 3.9 µL/min/1e6 cells)

---

Below, each of the molecules is paired with its reported efflux ratio at 2 h, 3 μM value.
system: MDR1; assay: MDCK-MDR1 permeability assay; format: in vitro ADME; details: dog, MDCK-MDR1, MDCK-MDR1 cells; Papp B→A divided by Papp A→B; 3 μM; 2 hours; read-out: Efflux ratio (ER)

- molecule: "O=C1COc2ncccc2C2CCC(CC2)OC[C@H]2[C@@H](NS(=O)(=O)C3CC3)CCCN12 (stereo in doubt) [Compound 14]"
  reported_value: "> 100"
- molecule: "O=C1COc2nccnc2[C@H]2CC[C@H](CC2)OCC2[C@@H](NS(=O)(=O)C3CC3)CCCN12 (stereo in doubt) [Compound 65]"
  reported_value: "> 100"
- molecule: "O=C1COc2ccccc2C2CCC(CC2)OC[C@H]2[C@@H](NS(=O)(=O)CCO)CCCN12 (stereo in doubt) [Compound 19]"
  reported_value: "> 100"

Quick one: efflux ratio at 2 h, 3 μM for CS(=O)(=O)N[C@H]1CCCN2C(=O)[C@H](CO)Oc3ccccc3[C@H]3CC[C@H](CC3)OCC12 (stereo in doubt) [Compound 61] ? > 100

Quick one: efflux ratio at 2 h, 3 μM for CC(C)S(=O)(=O)N[C@H]1CCCN2C(=O)COc3nccnc3[C@H]3CC[C@H](CC3)OCC12 (stereo in doubt) [Compound 66] ? 88

Quick one: efflux ratio at 2 h, 3 μM for CS(=O)(=O)N[C@H]1CCCN2C(=O)COc3cc(C#N)ccc3[C@H]3CC[C@H](CC3)OCC12 (stereo in doubt) [Compound 47] ? > 100

Quick one: efflux ratio at 2 h, 3 μM for Cc1ccnc2c1C1CCC(CC1)OC[C@H]1[C@@H](NS(C)(=O)=O)CCCN1C(=O)CO2 (stereo in doubt) [Compound 12] ? 74

Quick one: efflux ratio at 2 h, 3 μM for O=C1COc2nccnc2[C@H]2CC[C@H](CC2)OCC2[C@@H](NS(=O)(=O)C(F)(F)F)CCCN12 (stereo in doubt) [Compound 98] ? 57

Quick one: efflux ratio at 2 h, 3 μM for CC(C)(O)C(=O)N1CC[C@H](NS(C)(=O)=O)[C@@H]1Cc1cccc(-c2cc(F)cc(F)c2)c1F [Reference Compound B, reference compound] ? > 100
